tested on: NCI-H226 lung; assay: NCI-60 one-dose screen, 48 h; details: 10 µM unless noted
This is part of a sample that, as a whole, favours compounds with a hit. Of some 83,000 tested, about 20% had one in any assay. Calls of active or inactive are those of the source. The calls were made as follows: active = growth percent below 10; inactive = the rest.
Labels: label 1 = active, label 0 = inactive

molecule | assignedCategory
O=c1c2cc(F)ccc2sc2c(NCCCN3CCCC3)nc3ccccc3c12 | label 0
COc1ccc(-c2[nH]c(=S)n(C(CC3(C)NCC(=O)N3n3c(-c4ccccc4)cc(C)nc3=S)c3ccc(OC)cc3)c(=O)c2Br)cc1 (stereo not given) | label 0
O=C(c1ccccc1)c1c(/C=C/c2ccccc2)nc2ccccc2c1/C=C/c1ccc(Br)cc1 | label 0
COc1cccc2c1C(=O)c1c(O)c3c(c(O)c1C2=O)CC(O)(/C(C)=N/NC(=O)CCCCC(=O)N/N=C(\C)C1(O)Cc2c(O)c4c(c(O)c2C(OC2CC(N)C(O)C(C)O2)C1)C(=O)c1c(OC)cccc1C4=O)CC3OC1CC(N)C(O)C(C)O1 (stereo not given) | label 1
O=C(c1ccccc1)N1N=C(c2ccccc2)CC1c1nnc2n(Cc3ccccc3)c(=O)c3c4c(sc3n12)CCCC4 (stereo not given) | label 0
COc1cccc(-c2nn(-c3ccccc3)cc2-c2ccnc(NCCCNC(=O)Nc3ccc(Cl)c(Cl)c3)c2)c1 | label 0
CCC(CO)Nc1nc2ccc(Cl)cc2c2ccccc12 (stereo not given) | label 0
CCc1ccccc1NC(=O)/C(C#N)=C/c1ccc(OC)cc1 | label 0
COc1ccc(C2C(c3nn[nH]n3)=C(N)Oc3c2ccc2ccccc32)cc1 (stereo not given) | label 0
COc1ccc(-c2cc(-c3cc(OC)c(OC)c(OC)c3)c(C#N)c(N3CCOCC3)n2)cc1O | label 0
CC(C)CCC[C@@H](C)[C@H]1CC[C@H]2[C@@H](Nc3ccc(O)cc3)CCC[C@]12C | label 0
CN(c1ccccc1)c1ccc2c(c1)OCCC21CC1Nc1cnccc1C(=O)O (stereo not given) | label 0
Cn1cc2c(c1)-c1nc(Nc3ccccc3)ncc1CC2 | label 0
Cc1nc2ccccc2c(/C=C/c2ccc(Cl)cc2)c1C(=O)/C=C/c1ccc(F)cc1 | label 1
O=C(CCc1nnc(CN(c2ccccc2)c2ccccc2)o1)c1nc2ccccc2[nH]1 | label 0
Cc1cc(Cl)nc(NCc2cc(Nc3ccnc4cc(Cl)ccc34)ccc2F)n1 | label 0
COc1cccc(Nc2nccc(Nc3ccc4[nH]ncc4c3)n2)c1 | label 1
COc1cccc(-c2nn(-c3ccccc3)cc2-c2ccnc(NCCNC(=O)Nc3cccc(C(F)(F)F)c3)c2)c1 | label 0
CCN(CC)CCN1CC(O)=C(c2nc(-c3ccc(Cl)cc3)cs2)C1=N | label 0
COc1ccc(-c2cc(-c3cc(OC)ccc3OC)nc(SCC(=O)c3ccccc3)c2C#N)cc1 | label 0

----------
tested on: 786-0 renal; assay: NCI-60 one-dose screen, 48 h (100 = growth as untreated, 0 = no growth, -100 = all killed); conditions: 10 µM unless noted
The panel holds about 83,000 compounds, 20% with a hit somewhere; the sample as a whole holds those more often.
Reported growth values for a set of molecules

molecule | growth [%]
CCCCn1c(=O)c2c(nc(NCCc3ccc(O)c(O)c3)n2CCC)n(CCCC)c1=O | 81.3
CC(=O)OC[C@H]1OC(Sc2sc(C(=O)c3ccc(Br)cc3)c(N)c2-c2nc3ccccc3s2)[C@H](OC(C)=O)[C@@H](OC(C)=O)[C@@H]1OC(C)=O (stereo not given in full) | 62.7
N=C1CCC(=N)c2c1c(O)c1ccccc1c2O | 113
COCN1CCC2N(COC)CCC3N(COC)CCC1N23 (stereo not given) | 109
Nc1cc2c3c(cccc3c1)C(=O)N(CCN1CCCC1)C2=O | 46.4
Cc1ccc(C(=O)COc2cccc(/C=C3\Oc4ccccc4C3=O)c2)cc1 | 97.6
COc1nc(N(C)O)nc(N(C)O)n1 | 8.76
COC(=O)c1c2c(c(C)[n+]([O-])c1C)C(=O)C(NCc1ccc(F)cc1)=CC2=O | 48.7
Cc1ccc(Nc2ccc(Nc3ccc(C)cc3)c3c2C(=O)c2cccc(O)c2C3=O)cc1 | 111
Cc1ccc(C(=O)C2=C(O)C(=O)N(Cc3cccnc3)C2c2ccccc2F)o1 (stereo not given) | 86.2

----------
Tested on: MOLT-4 leukemia
Assay: NCI-60 one-dose screen, 48 h
Conditions: 10 µM unless noted
Description: Growth inhibition of the MOLT-4 human tumor cell line is measured as a screen for anti-cancer activity. Cells are grown in 96 well plates and exposed to the test compound for 48 hours. Compounds are tested at a single concentration, which is 10^-5 M for most compounds. The reported endpoint is percent growth (GI% or GIPRCNT), where numbers from 0 - 100% represent growth inhibition, and numbers from -100% - 0 represent cell death. For example, a value of 40 represents 60% growth inhibition. […]
Compounds without any hit were thinned out: in the full panel of roughly 83,000, 20% have a hit. Active and inactive are the calls of the source. The calls were made as follows: active = growth percent below 10; inactive = the rest.
Labels: True (active), False (inactive)

molecule | assayedTarget | assignedCategory
CN1CCN(CC(=O)Nc2nc(-c3cccc(NS(=O)(=O)c4cccc5c(N(C)C)cccc45)c3)cs2)CC1 | MOLT-4 leukemia | False
COc1cc(C2CC(=O)Nc3c2c(C)nn3-c2nc3ccccc3[nH]2)cc2c1OCC(=O)N2 (stereo not drawn) | MOLT-4 leukemia | True
CCN(CC)CCN1C(=O)c2c(c(C)c3c(oc4cc(O)ccc43)c2C)C1=O | MOLT-4 leukemia | True
O=C1C=C[C@]2(C[C@@H](c3cccc(C(F)(F)F)c3)O[C@@H](c3cccc(C(F)(F)F)c3)O2)O1 | MOLT-4 leukemia | True
COc1ccc(C2c3ccc4ccccc4c3Oc3nc(C)[nH]c(=O)c32)cc1 (stereo not drawn) | MOLT-4 leukemia | False
Cc1c(C)c2c(c(C)c1OCC(=O)O)CC[C@@](C)(CCC[C@@H](C)CCC[C@@H](C)CCCC(C)C)O2 | MOLT-4 leukemia | True
COc1cc(C2NC(=O)c3ccccc3N2)ccc1OCCCCCOc1c(OC)cc(C2=NOC(c3cc(OC)c(OC)c(OC)c3)C2)cc1OC (stereo not drawn) | MOLT-4 leukemia | False
C[C@H](NC(=O)[C@@H]1CSSC[C@@H](NC(=O)c2nc3ccccc3cc2O)C(=O)NCC(=O)N1C)c1ccccc1 | MOLT-4 leukemia | True
CCCCCCCOc1c(OC)cc(C2CC(=O)Nc3c2c(C)nn3-c2nc3ccccc3[nH]2)cc1OC (stereo not drawn) | MOLT-4 leukemia | False
Cc1ccc(-n2c(-c3ccccc3)c(-c3ccccc3)c3c(SCC(=O)n4[nH]c(N)cc4=O)ncnc32)cc1 | MOLT-4 leukemia | False
COc1ccc2occ(C3=C(c4c[nH]c5ccccc45)C(=O)N(O)C3=O)c2c1 | MOLT-4 leukemia | False
CN(Cc1cnc2nc(N)nc(N)c2n1)c1ccc(C(=O)N[C@@H](CCc2nn[nH]n2)c2nn[nH]n2)cc1 | MOLT-4 leukemia | False
COc1ccc(NC(=O)CSc2nnc(-c3cc(-c4ccccc4)nc4ccccc34)n2-c2ccccc2)cc1 | MOLT-4 leukemia | False

----------
system: MALME-3M melanoma; assay: NCI-60 one-dose screen, 48 h (100 = growth as untreated, 0 = no growth, -100 = all killed); details: 10 µM unless noted
Compounds without any hit were thinned out: in the full panel of roughly 83,000, 20% have a hit.
Assign 1 whenever growth does not fall below 70%; assign -1 whenever it does.

molecule | assayedTarget | assignedCategory
Clc1cc(Cl)cc(Nc2ccc3cc(OCCCN4CCOCC4)ccc3n2)c1 | MALME-3M melanoma | -1
O=C(Nc1ccccc1Cl)Oc1ccc(-c2ccccc2)cc1 | MALME-3M melanoma | 1
Cc1ccc(S(=O)(=O)N/N=C\c2cc(Cl)ccc2O)cc1 | MALME-3M melanoma | 1
COc1cc(/C=C/C(=O)c2c(C)nc3ccccc3c2/C=C/c2ccc(C)cc2)cc(OC)c1OC | MALME-3M melanoma | -1
C=C(C)[C@@H]1CC[C@]2(C(=O)NC3CCCCC3)CC[C@]3(C)[C@H](CC[C@@H]4[C@@]5(C)CCC(=O)C(C)(C)[C@@H]5CC[C@]43C)[C@@H]12 | MALME-3M melanoma | 1
COc1cc(/C=N/NC(=O)Cn2c(C(C)C)nc3ccccc32)ccc1O | MALME-3M melanoma | 1
CC(CCc1ccc(Cl)c(Cl)c1)NCc1ccc(C(C)(C)C)cc1 (stereo not given) | MALME-3M melanoma | 1
CCSC1=NC2C(N(CC)C(=O)N2CC)N1/N=C/C=C/c1ccccc1[N+](=O)[O-] (stereo not given) | MALME-3M melanoma | -1
O=c1c2c3c(sc2n2c(-c4cc(-c5ccccc5)nn4-c4ccccc4)nnc2n1Cc1ccccc1)CCCC3 | MALME-3M melanoma | 1
N#Cc1nc2c(S(=O)(=O)c3ccc(Cl)cc3)c(N)n(Nc3cccc(Cl)c3)c2nc1C#N | MALME-3M melanoma | -1
COc1cc(N2C(=O)c3nccnc3C2=O)cc(OC)c1OC | MALME-3M melanoma | 1
CNc1ccc(NC)c2c1C(=O)c1ccccc1C2=O | MALME-3M melanoma | 1
CCCCCCCCCCCCCCCCCCOc1ccc(CC(=O)OCC[N+]2(C)CCCC2)cc1 | MALME-3M melanoma | 1
COc1cc(OC)cc(C2CC(=O)Nc3c2c(C)nn3-c2nc3ccccc3[nH]2)c1 (stereo not given) | MALME-3M melanoma | -1
CCN(CC)c1nc(SCC(=O)Nc2nc3ccc(C)cc3s2)nc(-c2ccccc2)c1C#N | MALME-3M melanoma | 1
Cn1c(=O)c2c(nc(Cl)n2CCl)n(C)c1=O | MALME-3M melanoma | 1
COc1ccc(NC(=O)CSc2nc(C)c(C(C)=O)n2-c2ccc(Cl)cc2)cc1 | MALME-3M melanoma | 1
COc1cc(C2CC(=O)Nc3c2c(C)nn3-c2nc3ccccc3[nH]2)cc2c1OCC(=O)N2 (stereo not given) | MALME-3M melanoma | 1
Cc1ccc(NS(=O)(=O)c2ccc3c(c2)C2OCCC2C(c2ccc(C(=O)C(C)C)cc2)N3)cc1C (stereo not given) | MALME-3M melanoma | -1
O=C1/C(=C\c2c[nH]c3ccccc23)c2ccccc2N1c1c(Cl)cccc1Cl | MALME-3M melanoma | -1
